Value source: patent US20180258158A1

SYSTEM_TESTED: T1, rat serum albumin (rat SA), full length (rat, UniProt P02770 25-608)
T1 construct: mature; Immobilized on CM5 chip (SPR); also called RSA
EXPERIMENT_NOTES: SPR kinetics, immobilized albumin, 1:1 fit, 37 C
EXPERIMENTAL_ENDPOINT: kon

Would you please look over these solved cases?
- ADX_7016_A01 (parent PKE2 Adnectin) (designed binder, N-terminal Met may be cleaved; also called 2629_E06; ADX_2629_E06) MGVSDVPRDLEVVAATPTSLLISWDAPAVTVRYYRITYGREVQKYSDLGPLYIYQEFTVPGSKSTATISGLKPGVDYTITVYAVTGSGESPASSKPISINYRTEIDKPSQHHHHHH: 180000 M⁻¹ s⁻¹
- ADX_7016_G01 (Y44S) (designed binder, Full His6-tagged entry; also called 6727_G02) MGVSDVPRDLEVVAATPTSLLISWDAPAVTVRYYRITYGREVQKYSDLGPLYISQEFTVPGSKSTATISGLKPGVDYTITVYAVTGSGESPASSKPISINYRTEIDKPSQHHHHHH: 331000 M⁻¹ s⁻¹
- ADX_7016_E02 (L38T) (designed binder, Full His6-tagged entry; also called 6727_E08) MGVSDVPRDLEVVAATPTSLLISWDAPAVTVRYYRITYGREVQKYSDTGPLYIYQEFTVPGSKSTATISGLKPGVDYTITVYAVTGSGESPASSKPISINYRTEIDKPSQHHHHHH: 49400 M⁻¹ s⁻¹

Given the binder ADX_7016_C03 (Y44Q) (designed binder, Full His6-tagged entry; also called 6727_B03) MGVSDVPRDLEVVAATPTSLLISWDAPAVTVRYYRITYGREVQKYSDLGPLYIQQEFTVPGSKSTATISGLKPGVDYTITVYAVTGSGESPASSKPISINYRTEIDKPSQHHHHHH , write its reported kon. 89100 M⁻¹ s⁻¹
